Molecular target: GHSR-1a (Homo sapiens (Human))
Sequence (Q92847 whole entry): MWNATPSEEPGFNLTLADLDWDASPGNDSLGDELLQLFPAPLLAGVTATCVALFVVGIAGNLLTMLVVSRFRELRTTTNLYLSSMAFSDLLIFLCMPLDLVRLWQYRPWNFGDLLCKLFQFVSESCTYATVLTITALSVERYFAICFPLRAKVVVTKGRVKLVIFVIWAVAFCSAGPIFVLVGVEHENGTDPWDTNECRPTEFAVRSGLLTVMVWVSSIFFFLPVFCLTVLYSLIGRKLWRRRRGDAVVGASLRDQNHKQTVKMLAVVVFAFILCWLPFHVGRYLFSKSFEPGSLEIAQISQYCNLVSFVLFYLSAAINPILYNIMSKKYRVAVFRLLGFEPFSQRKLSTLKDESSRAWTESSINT
Assay: Agonistic activity for GHSR-1a, FLIPR calcium assay
Details: agonist activity assay, Flp In-CHO-GHSR Stable Pool cells, FLIPR calcium 6 kit; read-out: The activity (IC50) of polypeptide compounds for GHSR-1a
pIC50: −log10 of the molar value. Starred links: 1 amine or outer side, 2 acyl side, 3 side chain; linkers in the order of their positions; H or OH if unused. Non-standard residues stand in square brackets, D forms with d. Residues, ends and D or L forms follow the SMILES beside them. X6 = O=C(C1[C@H]2CC[C@H](C2)N1[*:1])[*:2]; dBta = N[C@H](Cc1csc2ccccc12)C(=O)O; Abu = CC[C@H](N)C(=O)O
If the reported pIC50 equals or exceeds 7, assign Y. If not, assign N.

// query Could you verify whether the entry N=C(N)NCCC[C@@H](NC(=O)[C@H](Cc1ccccc1)NC(=O)[C@@H](Cc1c[nH]c2ccccc12)NC(=O)[C@@H](Cc1csc2ccccc12)NC(=O)C1N[C@@H]2CC[C@H]1C2)C(N)=O (stereo partly shown) [Compound 69] (H-[X6][dBta][dW]F[dR]-NH2) shows pIC50 of no less than 7?
// result Y

// query Could you verify whether the entry CC(=O)N[C@@H](CCCCN)C(=O)N[C@H](Cc1csc2ccccc12)C(=O)N[C@H](Cc1c[nH]c2ccccc12)C(=O)N[C@@H](Cc1ccccc1)C(=O)N[C@H](CCCCN)C(N)=O [Compound 38] (Ac-K[dBta][dW]F[dK]-NH2) shows pIC50 of no less than 7?
// result N

// query Could you verify whether the entry NC(=O)[C@H](Cc1ccccc1)NC(=O)[C@@H](Cc1c[nH]c2ccccc12)NC(=O)[C@@H](Cc1csc2ccccc12)NC(=O)C1N[C@@H]2CC[C@H]1C2 (stereo partly shown) shows pIC50 of no less than 7?
// result Y

// query Could you verify whether the entry CC[C@H](N)C(=O)N[C@H](Cc1csc2ccccc12)C(=O)N[C@H](Cc1c[nH]c2ccccc12)C(=O)N[C@@H](Cc1ccccc1)C(=O)N[C@H](CCCCN)C(N)=O [Compound 33] (H-[Abu][dBta][dW]F[dK]-NH2) shows pIC50 of no less than 7?
// result Y

// query Could you verify whether the entry `NCC1(C(=O)N[C@H](Cc2csc3ccccc23)C(=O)N[C@H](Cc2c[nH]c3ccccc23)C(=O)N[C@@H](Cc2ccccc2)C(N)=O)CCC1` shows pIC50 of no less than 7?
// result Y
